# measurementNotes: activity coefficient (dimensionless); of the first substance listed, at infinite dilution; xn = mol fraction of the nth substance listed
# conditionSummary: 343.15 K; Liquid; Chromatography; x1 = 0
assayMetric: activity coefficient
One number for each entry.

molecule: CCCCCCCCCCC [undecane] + CCCOC[n+]1ccc(N(C)C)cc1.O=S(=O)([N-]S(=O)(=O)C(F)(F)F)C(F)(F)F
readoutValue: 46.6
--
molecule: CCC[N+](=O)[O-] [1-nitropropane] + CCCCCCCCn1cc[n+](COCCCOC[n+]2ccn(CCCCCCCC)c2C)c1C.O=S(=O)([N-]S(=O)(=O)C(F)(F)F)C(F)(F)F.O=S(=O)([N-]S(=O)(=O)C(F)(F)F)C(F)(F)F
readoutValue: 0.32
--
molecule: CCCO [propan-1-ol] + CCCCCCCCn1cc[n+](COCCCOC[n+]2ccn(CCCCCCCC)c2C)c1C.N#C[N-]C#N.N#C[N-]C#N
readoutValue: 0.31

// input: 5 molecules below; output: activity coefficient for each
1. CCCCCCCC [octane] + CCCOC[n+]1ccn(Cc2ccccc2)c1.O=S(=O)([N-]S(=O)(=O)C(F)(F)F)C(F)(F)F
2. c1ccccc1 [benzene] + CCCOC[n+]1ccn(Cc2ccccc2)c1.O=S(=O)([N-]S(=O)(=O)C(F)(F)F)C(F)(F)F
3. CC(C)OC(C)C [diisopropyl ether] + CCCCCCCCn1cc[n+](COCCCOC[n+]2ccn(CCCCCCCC)c2C)c1C.O=S(=O)([N-]S(=O)(=O)C(F)(F)F)C(F)(F)F.O=S(=O)([N-]S(=O)(=O)C(F)(F)F)C(F)(F)F
4. ClC(Cl)Cl [trichloromethane] + CCCOC[n+]1ccn(C)c1.O=S(=O)([N-]S(=O)(=O)C(F)(F)F)C(F)(F)F
5. C1CCCCC1 [cyclohexane] + CCCOC[n+]1ccn(Cc2ccccc2)c1.N#C[N-]C#N

Found:
12.5
0.71
1.54
1.06
11.5
